Biological target: RAMOS, B lymphocyte (Burkitt's Lymphoma)
Assay: Viability assay (MTT, Alamar Blue, hexosaminidase), 72 h
Assay type: cell-based
Details: Ramos cells, read-out: EC50
Experimental: RAMOS, B lymphocyte (Burkitt's Lymphoma), ATCC: CRL-1596 […] During the amplification step and the assays adherent cells were rinsed with DPBS (Dulbecco's Phosphate Buffered Saline, Sigma D1283) three times and afterward treated for 5 minutes with trypsin ([…]) (Gibco-BRL, 15400054) in solution of DPBS at 37° C., and, once detached, transferred in the culturing medium. […] Cells were counted in a Neubauer chamber after labelling with Tripan-Blue. […]
Measured parameter: EC50 (µM)
Express your answer in µM, writing the number without its unit.

# Substance, EC50 / µM
data = [
    ("APKXVIFKKAXAYILS-OH [IDP-S14]", 55),
]

Specify measured EC50 for RQRRNELKRXFFALRDX-NH2 [IDP-S12] .
52
